Experiment: Pharmacokinetics of Actimid in relapsed/refractory multiple myeloma patients
Format: in vivo, human
Conditions: human, in vivo, 5 mg, Cmax
Method: 4-(Amino)-2-(2,6-dioxo(3-piperidyl))-isoindoline-1,3-dione (Actimid™) was administered to patients with relapsed/refractory multiple myeloma. The study was conducted in compliance with Good Clinical Practices. Patients were at least 18 years old, had been diagnosed with multiple myeloma (with paraprotein in serum and/or urine), and were considered refractory to treatment after at least two cycles of treatment, or have relapsed after two cycles of treatment. […]
readout: Cmax (ng/mL)

Nc1cccc2c1C(=O)N(C1CCC(=O)NC1=O)C2=O (stereo not shown) ... 48.6
